Cited source for all entries: ChEMBL document CHEMBL1157539

Here, each record is paired with measured Inhibition data.
System: Plasmodium falciparum
Assay: GSK_TCMDC: Inhibition of Plasmodium falciparum 3D7 in whole red blood cells, using parasite LDH activity as an index of growth. Test compounds present at 2uM
Format: functional
Quantity Kind: Inhibition (%)

Compound | Quantity Kind | Scale Unit | Test Result
CC(C)(C)C1CCC(CC2=C(C(=O)O)c3ccccc3C2=O)CC1 (stereo not given) | Inhibition | % | 91
O=C(Nc1ccc(Cl)cc1C(=O)Nc1cccc(F)c1)c1ccc([N+](=O)[O-])cc1 | Inhibition | % | 89
Nc1nc(N)c2c(n1)CCC(c1ccccc1)C2 (stereo not given) | Inhibition | % | 93
O=C(Nc1ccc(-c2ccccc2)cc1)Nc1cccc(Cn2cnc(N3CCCNCC3)cc2=O)c1.O=C(O)C(F)(F)F | Inhibition | % | 88
N=C(N)c1ccc(C=Cc2ccc(C(=N)N)cc2O)cc1.O=S(=O)(O)CCO | Inhibition | % | 92
CC(C)Oc1ccc2ccccc2c1CNCCCCCCNCc1c(OC(C)C)ccc2ccccc12.CS(=O)(=O)O | Inhibition | % | 99
Cc1cccc2nc(-c3ccc(-c4cccc(NC(=O)Nc5ccsc5)c4)s3)[nH]c12 | Inhibition | % | 100
CCN(CCCN1CCCCC1)c1cc(C)nc(Nc2ccc(Cl)cc2C)n1.O=C(O)C(F)(F)F | Inhibition | % | 95
O=C(/C=C/c1ccc(Cl)c(Cl)c1)NCCCCCN1CCCN(C(=O)Nc2ccc([N+](=O)[O-])cc2)CC1 | Inhibition | % | 97
Nc1nc(N)c(-c2ccccc2)c(=O)[nH]1 | Inhibition | % | 83
CC(=O)Nc1nc(N)c2c(ccc3c2ccn3CC(C)C)n1 | Inhibition | % | 94
O=C(Cc1ccc(-n2cnnn2)cc1)N(Cc1cncn1Cc1cccc(C(F)(F)F)c1)CC1CC1 | Inhibition | % | 86
CCOc1ccc2c(=NN=Cc3cc(OC)c(OC)cc3OC)cc(C)[nH]c2c1 | Inhibition | % | 100
O=C(Nc1cccc(Cl)c1Cl)N[C@H]1CCN(CCCCCNC(=O)C2CC2c2ccc(Cl)c(Cl)c2)C1 (stereo not given in full) | Inhibition | % | 87
CCC(C)OC(=O)C1=C(C)NC2=C(C(=O)CC(c3ccc(OC)c(OC)c3)C2)C1c1ccc(O)cc1 (stereo not given) | Inhibition | % | 100
N#Cc1ccc(-c2ccc(C(=O)NCCCCN3CCC(c4ccc5c(c4OCc4ccccn4)CCCC5)CC3)cc2)cc1 | Inhibition | % | 96
COc1cc(C(=O)NCc2nn(CCN3CCC(N4CCCC4)CC3)cc2-c2ccc(Cl)c(Cl)c2)cc(OC)c1OC | Inhibition | % | 97
COc1ccc2cc(C(=O)Nc3ccc4c(c3)CCN(C3CCC3)CC4)ccc2c1.O=C(O)C(F)(F)F | Inhibition | % | 100
CS(=O)(=O)Cc1ccc(Nc2nccc(N3CCCc4cc(NC(=O)Nc5cccc(C(F)(F)F)c5)ccc43)n2)cc1 | Inhibition | % | 100
Cc1cc(NC(=O)c2cccs2)ccc1OC1CCN(Cc2ccc(F)cc2)CC1.O=C(O)C(F)(F)F | Inhibition | % | 94
